The following molecules are listed with their measured IC50 values.
- TEST: Displacement of [125 I] CCK-8 from Cholecystokinin type B receptor of guinea pig cerebral cortex
Reply with just the number (in µM).

Answered examples (3):
- CN1C(=O)[C@@H](NC(=O)c2ccc(Cl)cc2)N=C(c2ccccc2F)c2ccccc21: 2.9
- O=C(Nc1ccc(Cl)cc1)NC1N=C(c2ccccc2F)c2ccccc2NC1=O (centres undefined): 0.3
- CN1C(=O)C(NC(=O)Nc2ccc(Cl)cc2)N=C(c2ccccc2)c2ccccc21 (centres undefined): 0.023

Note: attention shifts to another entry.
Q) Find the recorded IC50 belonging to CN1C(=O)[C@H](NC(=O)c2ccc(Cl)cc2)N=C(c2ccccc2F)c2ccccc21 and report it.
A) 11

###

The following compounds are listed with their measured pIC50 values.
- TEST: Displacement of 125 I-gastrin from gastrin receptor of guinea pig gastric glands
pIC50 (log units): -log10 of the concentration in mol/L.

Answered examples (2):
- CN1C(=O)C(NC(=O)Nc2ccc(Cl)cc2)N=C(c2ccccc2)c2ccccc21 (stereo not drawn): 7.66
- CCOC(=O)CN1C(=O)C(NC(=O)Nc2ccc(Cl)cc2)N=C(c2ccccc2F)c2ccccc21 (stereo not drawn): 8.39

Note: attention shifts to another entry.
Q) Find the recorded pIC50 belonging to CN1C(=O)[C@H](NC(=O)c2ccc(Cl)cc2)N=C(c2ccccc2F)c2ccccc21 and report it.
A) 5.12

###

- TEST: Displacement of 125 I-gastrin from gastrin receptor of guinea pig gastric glands
The following compounds are listed with their measured IC50 values.
Reply with just the number (in nM).

• CN1C(=O)[C@@H](NC(=O)c2ccc(Cl)cc2)N=C(c2ccccc2F)c2ccccc21 = 2500

Q) Find the recorded IC50 belonging to O=C(Nc1ccc(Cl)cc1)NC1N=C(c2ccccc2F)c2ccccc2NC1=O (configuration not stated) and report it.
A) 640
